// ΔOD @ SATURATION lookup, one value per entry
Assay: photochromic response rates on an optical bench (test squares)
Format: physicochemical
Conditions: UV exposure continued for 20 minutes; 75° F. (23.9° C.); same test squares
// keep it numeric: no unit symbol after the value

GET /values?readout=ΔOD @ SATURATION&item= COc1ccc(C2(c3ccc(OC)cc3)C=Cc3c(C(O)(c4ccccc4)c4ccccc4)c(O)c4ccccc4c3O2)cc1
0.32

Then what about the compound Oc1c(Sc2ccccc2)c2c(c3ccccc13)OC1(C=C2)C2CC3CC(C2)CC1C3 (stereo not drawn) ?
0.47

Proceed to COc1ccc(C2(c3ccc(OC)cc3)C=Cc3c(Sc4ccccc4)c(OC(C)=O)c4ccccc4c3O2)cc1
0.23
